Numbers sourced from ChEMBL document CHEMBL1134914.

tgt: Caspase-1 (Mus musculus) (UniProt P29452)
Sequence (P29452 whole entry, looked up): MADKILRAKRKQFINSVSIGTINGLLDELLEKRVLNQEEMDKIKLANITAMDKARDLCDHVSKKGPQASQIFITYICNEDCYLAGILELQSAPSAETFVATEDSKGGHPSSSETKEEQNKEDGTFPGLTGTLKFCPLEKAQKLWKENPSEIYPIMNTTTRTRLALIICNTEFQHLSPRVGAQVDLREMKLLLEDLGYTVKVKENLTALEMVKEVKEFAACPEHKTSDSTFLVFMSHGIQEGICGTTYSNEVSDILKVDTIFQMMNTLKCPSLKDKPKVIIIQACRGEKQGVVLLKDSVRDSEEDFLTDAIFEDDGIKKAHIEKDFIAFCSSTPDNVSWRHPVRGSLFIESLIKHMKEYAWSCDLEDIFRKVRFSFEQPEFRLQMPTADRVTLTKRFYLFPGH
observedProperty: IC50

compound | reported
CC(C)C[C@H](NC(=O)CCSc1cccc2ccccc12)C(=O)N[C@H]1CC(=O)OC1O (stereo partly drawn) | 0.563 µM
CC(C)C[C@H](NC(=O)COc1cccc(-c2ccccc2)c1)C(=O)N[C@H]1CC(=O)OC1O (stereo partly drawn) | 1.1 µM
CC(C)[C@@H](NC(=O)OCc1ccccc1)C(=O)C[C@H]1CC(=O)OC1O (stereo partly drawn) | 5.85 µM
CC(C)C[C@H](NC(=O)COc1ccc(Oc2ccccc2)cc1)C(=O)N[C@H]1CC(=O)OC1O (stereo partly drawn) | 2.21 µM
CC(C)C[C@H](NC(=O)CCc1cccc2ccccc12)C(=O)N[C@H]1CC(=O)OC1O (stereo partly drawn) | 1.86 µM
CC(C)C[C@H](NC(=O)COc1ccccc1Cc1ccccc1)C(=O)N[C@H]1CC(=O)OC1O (stereo partly drawn) | 0.521 µM
CC(C)C[C@H](NC(=O)CCSc1ccc2ccccc2c1)C(=O)N[C@H]1CC(=O)OC1O (stereo partly drawn) | 0.611 µM
CC(C)C[C@H](NC(=O)COc1cccc2c1CCCC2)C(=O)N[C@H]1CC(=O)OC1O (stereo partly drawn) | 1.81 µM
Cc1ccc(OCC(=O)N[C@@H](CC(C)C)C(=O)N[C@H]2CC(=O)OC2O)c(C23CC4CC(CC(C4)C2)C3)c1 (stereo partly drawn) | 1.43 µM
CC(C)C[C@H](NC(=O)CCCc1ccc2ccccc2c1)C(=O)N[C@H]1CC(=O)OC1O (stereo partly drawn) | 1.8 µM
CC(C)C[C@H](NC(=O)COc1ccc(-c2ccccc2)cc1)C(=O)N[C@H]1CC(=O)OC1O (stereo partly drawn) | 1.9 µM
CC(C)C[C@H](NC(=O)CC(=O)c1cccc2ccccc12)C(=O)N[C@H]1CC(=O)OC1O (stereo partly drawn) | 0.408 µM
CC(C)C[C@H](NC(=O)COc1ccnc2ccccc12)C(=O)N[C@H]1CC(=O)OC1O (stereo partly drawn) | 35.3 µM
CC(C)C[C@H](NC(=O)Cc1ccc2ccccc2c1)C(=O)N[C@H]1CC(=O)OC1O (stereo partly drawn) | 3.14 µM
CC(C)C[C@H](NC(=O)COc1ccc(Cl)c2ccccc12)C(=O)N[C@H]1CC(=O)OC1O (stereo partly drawn) | 0.429 µM
CC(C)C[C@H](NC(=O)COc1ccccc1)C(=O)N[C@H]1CC(=O)OC1O (stereo partly drawn) | > 10 µM
CC(C)C[C@H](NC(=O)CCOc1ccccc1)C(=O)N[C@H]1CC(=O)OC1O (stereo partly drawn) | 9.42 µM
COc1ccc(OCC(=O)N[C@@H](CC(C)C)C(=O)N[C@H]2CC(=O)OC2O)c2ccccc12 (stereo partly drawn) | 0.831 µM
CC(C)C[C@H](NC(=O)COc1ccc(C2CCCC2)cc1)C(=O)N[C@H]1CC(=O)OC1O (stereo partly drawn) | 2.2 µM
CC(C)C[C@H](NC(=O)c1ccc2ccccc2c1)C(=O)N[C@H]1CC(=O)OC1O (stereo partly drawn) | 1.74 µM
CC(C)C[C@H](NC(=O)COc1ccccc1C1CCCC1)C(=O)N[C@H]1CC(=O)OC1O (stereo partly drawn) | 0.538 µM
CC(C)C[C@H](NC(=O)CSc1cccc2ccccc12)C(=O)N[C@H]1CC(=O)OC1O (stereo partly drawn) | 2.75 µM
CC(C)C[C@@H](NC(=O)OCc1ccccc1)C(=O)C[C@H]1CC(=O)OC1O (stereo partly drawn) | 18.8 µM
CC(C)C[C@H](NC(=O)Cc1cccc2ccccc12)C(=O)N[C@H]1CC(=O)OC1O (stereo partly drawn) | 3.24 µM
CC(C)C[C@H](NC(=O)COc1nccc2ccccc12)C(=O)N[C@H]1CC(=O)OC1O (stereo partly drawn) | 44.2 µM
CC(C)C[C@H](NC(=O)COc1ccccc1-c1ccccc1)C(=O)N[C@H]1CC(=O)OC1O (stereo partly drawn) | 0.636 µM
CC(C)C[C@H](NC(=O)/C=C/c1ccccc1)C(=O)N[C@H]1CC(=O)OC1O (stereo partly drawn) | 0.65 µM
CC(C)C[C@H](NC(=O)COc1ccc2ccccc2c1)C(=O)N[C@H]1CC(=O)OC1O (stereo partly drawn) | 10 µM
CC(C)C[C@H](NC(=O)COc1ccc(Cc2ccccc2)cc1)C(=O)N[C@H]1CC(=O)OC1O (stereo partly drawn) | 1.8 µM
Cc1ccc2ccccc2c1OCC(=O)N[C@@H](CC(C)C)C(=O)N[C@H]1CC(=O)OC1O (stereo partly drawn) | 0.843 µM
CC(C)C[C@H](NC(=O)COc1cccc2cnccc12)C(=O)N[C@H]1CC(=O)OC1O (stereo partly drawn) | 5.14 µM
CC(C)C[C@H](NC(=O)COc1cccc2ncccc12)C(=O)N[C@H]1CC(=O)OC1O (stereo partly drawn) | 5.25 µM
CC(C)C[C@H](NC(=O)CCOc1ccc2ccccc2c1)C(=O)N[C@H]1CC(=O)OC1O (stereo partly drawn) | 1.32 µM
CC(C)C[C@H](NC(=O)COc1ccc(OCc2ccccc2)cc1)C(=O)N[C@H]1CC(=O)OC1O (stereo partly drawn) | 2.51 µM
CC(C)C[C@H](NC(=O)Cc1ccc(-c2ccccc2)cc1)C(=O)N[C@H]1CC(=O)OC1O (stereo partly drawn) | 7.43 µM
CC(C)C[C@H](NC(=O)COc1ccc(C23CC4CC(CC(C4)C2)C3)cc1)C(=O)N[C@H]1CC(=O)OC1O (stereo partly drawn) | 1.83 µM
CC(C)C[C@H](NC(=O)CC(=O)c1ccc2ccccc2c1)C(=O)N[C@H]1CC(=O)OC1O (stereo partly drawn) | 0.543 µM
CC(C)C[C@H](NC(=O)COc1ccccc1OCc1ccccc1)C(=O)N[C@H]1CC(=O)OC1O (stereo partly drawn) | 2.4 µM

---

Consider the following pIC50 values measured on Caspase-1 (Mus musculus) (UniProt P29452).
pIC50: −log10 of the molar value.

compound | resultModifier | pIC50
CC(C)C[C@H](NC(=O)COc1cccc2cccnc12)C(=O)N[C@H]1CC(=O)OC1O (stereo not given in full) | = | 4.86
CC(C)C[C@H](Nc1ccccc1)C(=O)N[C@H]1CC(=O)OC1O (stereo not given in full) | < | 5.00
CC(C)C[C@H](NC(=O)COc1ccc2c(c1)CCCC2)C(=O)N[C@H]1CC(=O)OC1O (stereo not given in full) | = | 5.59
CC(C)C[C@H](NC(=O)CSc1ccc2ccccc2c1)C(=O)N[C@H]1CC(=O)OC1O (stereo not given in full) | = | 6.10
CC(C)C[C@H](NC(=O)COc1c(Cl)cc(Cl)c2ccccc12)C(=O)N[C@H]1CC(=O)OC1O (stereo not given in full) | = | 6.85

---

tgt: Caspase-6 (Homo sapiens)
Sequence (P55212 24-179 limits assumed): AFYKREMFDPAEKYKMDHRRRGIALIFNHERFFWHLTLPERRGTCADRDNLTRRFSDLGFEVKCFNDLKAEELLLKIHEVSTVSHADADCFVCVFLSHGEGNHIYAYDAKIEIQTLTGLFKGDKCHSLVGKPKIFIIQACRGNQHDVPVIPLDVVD
Sequence (P55212 194-293 limits assumed): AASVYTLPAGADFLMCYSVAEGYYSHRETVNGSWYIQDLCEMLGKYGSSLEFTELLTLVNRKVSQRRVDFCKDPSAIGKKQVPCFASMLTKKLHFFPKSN
procedureText: Inhibitory concentration required against caspase-6

compound | IC50 / µM
CC(C)C[C@H](NC(=O)COc1c(Cl)cc(Cl)c2ccccc12)C(=O)N[C@H]1CC(=O)OC1O (stereo partly specified) | 21.4
CC(C)C[C@H](NC(=O)COc1ccc2c(c1)CCCC2)C(=O)N[C@H]1CC(=O)OC1O (stereo partly specified) | 28.6
CC(C)C[C@H](NC(=O)CC(=O)c1ccc2ccccc2c1)C(=O)N[C@H]1CC(=O)OC1O (stereo partly specified) | 10.3
CC(C)C[C@H](NC(=O)CCSc1cccc2ccccc12)C(=O)N[C@H]1CC(=O)OC1O (stereo partly specified) | 2.72
CC(C)C[C@H](NC(=O)COc1cccc2cccnc12)C(=O)N[C@H]1CC(=O)OC1O (stereo partly specified) | 12.5
CC(C)C[C@H](NC(=O)COc1cccc(-c2ccccc2)c1)C(=O)N[C@H]1CC(=O)OC1O (stereo partly specified) | 14.5

---

tgt: Caspase-3 (Homo sapiens, UniProt P42574)
Sequence (P42574 29-175 limits assumed): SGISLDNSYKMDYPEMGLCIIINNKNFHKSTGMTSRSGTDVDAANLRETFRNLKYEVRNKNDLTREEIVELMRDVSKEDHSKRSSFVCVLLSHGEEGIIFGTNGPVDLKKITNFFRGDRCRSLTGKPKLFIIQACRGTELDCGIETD
Sequence (P42574 176-277 limits assumed): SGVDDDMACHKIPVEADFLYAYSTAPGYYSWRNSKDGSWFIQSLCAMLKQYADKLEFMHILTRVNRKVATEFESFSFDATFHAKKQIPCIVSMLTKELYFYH
procedureText: Inhibitory concentration against caspase-3

compound | IC50 (nM)
CC(C)C[C@@H](NC(=O)OCc1ccccc1)C(=O)C[C@H]1CC(=O)OC1O (some centres undefined) | 3470
CC(C)C[C@H](NC(=O)CCCc1ccc2ccccc2c1)C(=O)N[C@H]1CC(=O)OC1O (some centres undefined) | 2760
CC(C)C[C@H](NC(=O)C(C)Oc1cccc2ccccc12)C(=O)N[C@H]1CC(=O)OC1O (some centres undefined) | 376
CC(C)C[C@H](NC(=O)COc1nccc2ccccc12)C(=O)N[C@H]1CC(=O)OC1O (some centres undefined) | 1570
CC(C)C[C@H](NC(=O)COc1ccc(Cl)c2ccccc12)C(=O)N[C@H]1CC(=O)OC1O (some centres undefined) | 231
CC(C)C[C@H](NC(=O)COc1ccc(Cc2ccccc2)cc1)C(=O)N[C@H]1CC(=O)OC1O (some centres undefined) | 346
CC(C)C[C@H](NC(=O)Cc1cccc2ccccc12)C(=O)N[C@H]1CC(=O)OC1O (some centres undefined) | 853
CC(C)C[C@H](NC(=O)COc1ccc(OCc2ccccc2)cc1)C(=O)N[C@H]1CC(=O)OC1O (some centres undefined) | 570
CC(C)C[C@H](NC(=O)COc1cccc2cccnc12)C(=O)N[C@H]1CC(=O)OC1O (some centres undefined) | 147
